Source listed as patent US11814367B2.

- Assayed target: hGYS1 enzyme (recombinant hGYS1/GN1 protein) (Homo sapiens (Human))
- Sequence (P13807 whole entry): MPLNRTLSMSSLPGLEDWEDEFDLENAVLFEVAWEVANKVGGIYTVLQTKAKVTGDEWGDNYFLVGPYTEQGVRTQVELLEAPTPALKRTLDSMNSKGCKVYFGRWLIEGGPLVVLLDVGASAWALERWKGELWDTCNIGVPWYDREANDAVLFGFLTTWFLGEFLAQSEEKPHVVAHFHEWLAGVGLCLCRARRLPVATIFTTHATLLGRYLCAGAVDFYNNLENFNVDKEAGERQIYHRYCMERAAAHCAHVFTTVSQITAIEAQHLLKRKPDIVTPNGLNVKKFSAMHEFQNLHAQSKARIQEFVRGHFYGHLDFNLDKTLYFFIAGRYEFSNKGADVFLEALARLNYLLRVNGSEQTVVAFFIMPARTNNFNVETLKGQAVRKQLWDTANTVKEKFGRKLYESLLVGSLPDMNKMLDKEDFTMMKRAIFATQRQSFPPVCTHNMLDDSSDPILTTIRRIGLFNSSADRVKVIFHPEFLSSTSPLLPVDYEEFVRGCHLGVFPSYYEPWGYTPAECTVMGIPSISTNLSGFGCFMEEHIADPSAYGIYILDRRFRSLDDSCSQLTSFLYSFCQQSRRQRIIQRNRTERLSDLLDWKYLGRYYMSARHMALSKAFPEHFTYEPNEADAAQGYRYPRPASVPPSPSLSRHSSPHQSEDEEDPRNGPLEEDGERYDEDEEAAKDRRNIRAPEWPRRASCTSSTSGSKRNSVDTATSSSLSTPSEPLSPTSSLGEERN
- Sequence (P46976 whole entry partner): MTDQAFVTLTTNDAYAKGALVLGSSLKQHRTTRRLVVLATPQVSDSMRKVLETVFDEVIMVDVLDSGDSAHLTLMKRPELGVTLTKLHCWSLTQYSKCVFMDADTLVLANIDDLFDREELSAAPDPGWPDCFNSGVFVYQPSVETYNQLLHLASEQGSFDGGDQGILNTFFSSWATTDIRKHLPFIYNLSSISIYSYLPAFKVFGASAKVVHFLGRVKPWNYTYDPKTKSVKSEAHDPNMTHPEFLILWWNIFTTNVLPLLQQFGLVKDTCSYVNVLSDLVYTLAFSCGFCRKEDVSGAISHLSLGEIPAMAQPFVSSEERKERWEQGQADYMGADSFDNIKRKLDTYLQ
- Experiment notes: GYS1 coupled enzyme assay (PK/LDH)
- Test conditions: hGYS1/GN1 50 nM, UDP-Glucose 0.8 mM, G6P 1 mM; geometric mean of at least 2 runs
pIC50: −log10 of the molar value.
Experimental readout: pIC50

Compound	Experimental readout	Assay result
O=C(N[C@@H](c1ccccc1)c1ccc(C2CC2)c(F)c1)[C@@H]1C[C@@H](F)CN1C(=O)Cc1ccn[nH]1 [Compound 436]	pIC50	6.76
CN(C)C(=O)NCC(=O)N1C[C@H](F)C[C@H]1C(=O)N[C@@H](c1ccccc1)c1ccc(C2CC(F)(F)C2)c(F)n1 [Compound 507]	pIC50	7.66

1 = CC(C)c1ccc([C@@H](NC(=O)[C@@H]2C[C@@H](F)CN2C(=O)Cn2nncc2N2CC(F)(F)C2)c2ccccc2)nc1F [Compound 807]
2 = O=C(N[C@@H](c1ccccc1)c1ccc(C2CC(F)(F)C2)c(F)n1)[C@@H]1C[C@@H](F)CN1C(=O)Cc1[nH]nnc1C(F)(F)F [Compound 510]
3 = CC(=O)Nc1cc(C(=O)N2C[C@H](F)C[C@H]2C(=O)N[C@@H](c2ccccc2)c2ccc(C(C)C)cc2)ccn1 [Compound 72]
[in] Let's sort these by pIC50, smallest first. Go ahead? Give the labels in the order specified.
[out] 3, 1, 2
